Cited source: patent US20230272051A1

Catalogue of kon readings, one per entry.
Tested system: T1, SARS-CoV-2 Receptor Binding Domain (RBD) protein (SARS-CoV-2, UniProt P0DTC2 319-541)
T1 construct: also called Sars-Cov-2 (COV2)
Experimental protocol: SPR (Carterra LSA); scFv captured by anti-V5, RBD as analyte
# value in M⁻¹ s⁻¹; strip the unit string

COVID19_P01_H07 (scFv, V domains shown) VH: QVQLVQSGAEVKKPGSSVKVSCKASGYSFNNYDLHWVRQAPGQGLEWMGGIIPIFDTANYAQKFQGRVTITADESTSTAYMELSSLRSEDTAVYYCALETVMGGMVKWGQGTLVTVSS VL: SSYVLTQPPSVSVAPGKTARITCGGNNIGSKSVHWYQQKPGQAPVLVIYYDSDRPSGIPERFSGSNSGNTATLTISRIEAGDEADYYCQVWDSSGDYVFGGGTKLTVLA	496000

Here is another binder to look at.
Need kon of COVID19_P14_F08 (scFv, V domains shown) VH: QVQLVQSGAEVKKPGSSVKVSCKASGYTFTAFYIHWVRQAPGQGLEWMGGIIPISGTANYAQKFQGRATITADESTSTAYMELSSLRSEDTAVYYCAREVVMGGMDVWGQGTLVTVSS VL: SSYVLTQPPSVSVAPGKTARITCGGNNIGSKSVHWYQQKPGQAPVLVIYYDSDRPSGIPERFSGSNSGNTATLTISRVEAGDEADYYCQVWDSTSDYVFGGGTKLTVLA , thanks.
113000
